ASSAY_SYSTEM: P2X purinoceptor 2 (Rattus norvegicus, UniProt P49653)
Sequence (P49653 whole entry): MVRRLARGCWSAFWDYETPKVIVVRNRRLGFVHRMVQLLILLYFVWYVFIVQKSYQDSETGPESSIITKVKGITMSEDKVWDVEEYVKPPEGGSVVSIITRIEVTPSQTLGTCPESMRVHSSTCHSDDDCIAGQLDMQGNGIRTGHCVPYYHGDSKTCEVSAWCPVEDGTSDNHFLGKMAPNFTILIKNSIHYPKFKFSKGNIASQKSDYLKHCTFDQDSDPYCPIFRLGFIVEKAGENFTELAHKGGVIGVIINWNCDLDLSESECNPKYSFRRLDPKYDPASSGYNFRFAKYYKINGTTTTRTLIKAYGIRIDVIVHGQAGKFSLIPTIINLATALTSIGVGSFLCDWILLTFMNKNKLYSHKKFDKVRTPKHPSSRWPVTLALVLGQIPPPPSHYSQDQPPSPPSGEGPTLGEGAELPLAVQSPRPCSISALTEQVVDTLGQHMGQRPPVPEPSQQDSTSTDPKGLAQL
EXPERIMENT_SUMMARY: Antagonist activity against rat […] receptor expressed in Xenopus laevis oocyte assessed as inhibition of alpha, beta-meATP-induced inward current by two-electrode voltage-clamp electrophysiology
QUANTITY: IC50 (µM)
# number only, unit µM dropped from output

// returns reported IC50 for input Nc1ncnc2c1ncn2C1OC(COP(=O)(O)OP(=O)(O)OP(=O)(O)O)C2OC3(OC21)C([N+](=O)[O-])=CC([N+](=O)[O-])=CC3=[N+]([O-])[O-] (stereo unspecified)
4

Source of measurements: BindingDB's records for doi:10.1021/jm1012193
